# credit: ChEMBL document CHEMBL1145342

Target: Replicase polyprotein 1a (Severe acute respiratory syndrome-related coronavirus, UniProt P0C6U8)
pIC50: −log10 of the molar value.

>  <chem smiles>
O=C(Cc1nccs1)c1nccs1

>  <pIC50>
4.40

$$$$
>  <chem smiles>
CC(=O)c1ccccc1S(=O)(=O)c1ccccc1C(=O)O

>  <pIC50>
4.80

$$$$
>  <chem smiles>
CSc1[nH]nc(NC(=O)c2cccs2)c1S(=O)(=O)c1ccccc1

>  <pIC50>
4.82

$$$$
>  <chem smiles>
O=[N+]([O-])c1ccc(S(=O)(=O)c2ccc(Cl)cc2)[n+]([O-])c1

>  <pIC50>
4.82

$$$$
>  <chem smiles>
O=[N+]([O-])c1ccc(S(=O)(=O)c2ccc([N+](=O)[O-])cc2)cc1

>  <pIC50>
4.60

$$$$
>  <chem smiles>
O=C(Oc1ccc(S(=O)(=O)c2ccc(OC(=O)C(Cl)=C(Cl)Cl)cc2)cc1)C(Cl)=C(Cl)Cl

>  <pIC50>
6.05

$$$$
>  <chem smiles>
CCOC(=O)C(=CNc1ccc(S(=O)(=O)c2ccc(/N=C/C(C(=O)OCC)=C(\O)OCC)cc2)cc1)C(=O)OCC

>  <pIC50>
4.49

$$$$
>  <chem smiles>
O=S(=O)(Cc1[nH]c(-c2ccc(Cl)s2)c[s+]1)c1cccs1

>  <pIC50>
4.74

$$$$
>  <chem smiles>
CCOC(=O)/C(C#N)=C/Nc1ccc(S(=O)(=O)c2ccc(/N=C/C(C#N)=C(\O)OCC)cc2)cc1

>  <pIC50>
4.80

$$$$
>  <chem smiles>
Cc1nn(C)c(NCc2ccc(-c3cccs3)s2)c1[N+](=O)[O-]

>  <pIC50>
4.70

$$$$
>  <chem smiles>
CC1(C)CC(=O)c2c(NCc3ccco3)sc(C#N)c2C1

>  <pIC50>
4.80

$$$$
>  <chem smiles>
Cc1noc(NC(=O)c2ccc(-c3cc(C(F)(F)F)nn3C)s2)c1[N+](=O)[O-]

>  <pIC50>
5.30

$$$$
>  <chem smiles>
O=[N+]([O-])c1cc(C(F)(F)F)ccc1S(=O)(=O)c1ccc(Cl)cc1

>  <pIC50>
4.92

$$$$
>  <chem smiles>
O=C(O)c1ccc(S(=O)(=O)c2cc(Br)c(O)c(Br)c2)cc1

>  <pIC50>
4.80

$$$$
>  <chem smiles>
Cc1oc(C(C)(C)C)cc1-c1cc(NS(=O)(=O)c2cccs2)[nH]n1

>  <pIC50>
5.00

$$$$
>  <chem smiles>
Nc1ncc(S(=O)(=O)c2ccc(Cl)cc2)c(N)n1

>  <pIC50>
5.22

$$$$
